Source listed as patent US11535633B2.

Target: STING in THP1-Dual KI-hSTING-R232 cells (Homo sapiens, UniProt Q86WV6, H232R)
Sequence (Q86WV6 whole entry H232R): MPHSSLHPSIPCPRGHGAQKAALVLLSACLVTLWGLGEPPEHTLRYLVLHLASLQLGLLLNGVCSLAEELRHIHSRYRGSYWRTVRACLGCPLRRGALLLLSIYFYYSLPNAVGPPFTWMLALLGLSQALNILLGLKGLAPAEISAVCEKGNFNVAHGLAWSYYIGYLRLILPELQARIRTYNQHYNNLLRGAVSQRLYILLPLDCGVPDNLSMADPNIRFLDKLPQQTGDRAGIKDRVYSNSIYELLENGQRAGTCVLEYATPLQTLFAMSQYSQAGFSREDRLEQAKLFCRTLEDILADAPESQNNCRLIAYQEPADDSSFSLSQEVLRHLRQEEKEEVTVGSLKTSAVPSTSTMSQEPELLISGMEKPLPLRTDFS
Assay: Human THP1 reporter cell assay (IRF luciferase reporter)
Conditions: 24 hours incubation
Parameter: log10 EC50 (log10 of the value in nM)
The common logarithm of EC50 in nM is what is listed.

These recorded examples may help you get a feel for the data.
{"Compound": "CC=CCC1COc2cc(C(N)=O)cc3nc(NC(=O)c4cc(C)nn4CC)n1c23 (stereo not shown) [Example 5]", "log10 EC50": 3.48}
{"Compound": "CCn1nc(C)cc1C(=O)Nc1nc2cc(C(N)=O)cc(OC)c2n1CCC[C@H]1COc2cc(C(N)=O)cc3nc(NC(=O)c4cc(C)nn4CC)n1c23 [Example 13]", "log10 EC50": 1.48}
{"Compound": "CCn1nc(C)cc1C(=O)Nc1nc2cc(C(N)=O)ccc2n1CCC[C@H]1COc2cc(C(N)=O)cc3nc(NC(=O)c4cc(C)nn4CC)n1c23 [Example 18]", "log10 EC50": 2.20}
{"Compound": "CCn1nc(C)cc1C(=O)Nc1nc2cc(C(N)=O)cc(OCCO)c2n1CCC[C@H]1COc2cc(C(N)=O)cc3nc(NC(=O)c4cc(C)nn4CC)n1c23 [Example 20]", "log10 EC50": 2.00}

Which log10 EC50 value belongs to C=CCOc1cc(C(N)=O)cc2nc(NC(=O)c3cc(C)nn3CC)n(CCC[C@H]3COc4cc(C(N)=O)cc5nc(NC(=O)c6cc(C)nn6CC)n3c45)c12 [Example 25] ?
2.70

Which log10 EC50 value belongs to CCn1nc(C)cc1C(=O)Nc1nc2cc(C(N)=O)cc(OCCCOC)c2n1CCC[C@H]1COc2cc(C(N)=O)cc3nc(NC(=O)c4cc(C)nn4CC)n1c23 [Example 21] ?
1.78

Which log10 EC50 value belongs to C/C=C/C[C@H]1COc2cc(C(N)=O)cc3nc(NC(=O)c4cc(C)nn4CC)n1c23 [Example 5-3] ?
3.11

Which log10 EC50 value belongs to CCn1nc(C)cc1C(=O)Nc1nc2cc(C(N)=O)cc(OCCCN(C)C)c2n1CCC[C@H]1COc2cc(C(N)=O)cc3nc(NC(=O)c4cc(C)nn4CC)n1c23 [Example 24] ?
2.54
